- Test system: Plasmodium berghei
- assayText: Luciferase/luciferin-expressing antifolate-resistant parasites were used to infect a culture of HepG2 cells that were pre-incubated with compounds. Infected hepatocytes emit light due to the luciferase reaction. Assay results are presented as the percent inhibition of light emission compared to control. […]
- Format: functional
- settings: sporozoite, PBLUC_HILL_SLOPE 0.619, PBLUC_R_SQUARED 0.654, read-out: LUCIFERASE INFECTION ASSAY - IC50
endpointName: IC50 (nM)
Numbers only, in nM.

Q. What IC50 value was documented for this molecule, `CN(C)CC(C)(C)CNc1nn2cc(-c3ccccc3)nc2s1` ?
A. 732

---

- Test system: Plasmodium berghei
- assayText: Luciferase/luciferin-expressing antifolate-resistant parasites were used to infect a culture of HepG2 cells that were pre-incubated with compounds. Infected hepatocytes emit light due to the luciferase reaction. Assay results are presented as the percent inhibition of light emission compared to control. […]
- Type: functional
- settings: sporozoite, read-out: LUCIFERASE INFECTION ASSAY - IC90
Exercise: state measured IC90 for each of the compounds provided.

COc1cc(NC(=O)c2sccc2Oc2ccccc2[N+](=O)[O-])c(Cl)cc1Cl; > 7.51 µM

Dear colleague, could you send me IC90 for each of the items below? Thanks.
1. COc1ccc(C(=O)C2CCN(c3nn4cc(C(C)(C)C)nc4s3)CC2)cc1
2. NS(=O)(=O)c1ccc(CCNc2nn3c(-c4ccc(F)c(Cl)c4)cnc3s2)cc1
3. Cc1ccc2nc(C(F)(F)F)c(C(=O)NCc3cc(Cl)cc(Cl)c3)n2c1
4. CCOC(=O)c1cnc(SC(C)C(=O)Nc2nc(-c3ccccc3)cs2)nc1N (stereo not given)

A.
["4.16 µM", "> 7.3 µM", "> 8.2 µM", "> 10 µM"]

---

- Tested on: Plasmodium berghei
- assayText: Luciferase/luciferin-expressing antifolate-resistant parasites were used to infect a culture of HepG2 cells that were pre-incubated with compounds. Infected hepatocytes emit light due to the luciferase reaction. Assay results are presented as the percent inhibition of light emission compared to control. […]
- Type: functional
- settings: sporozoite, PBLUC_HILL_SLOPE 2.51, PBLUC_R_SQUARED 0.619, read-out: LUCIFERASE INFECTION ASSAY - IC50
endpointName: pIC50
Give bare numbers, as −log10 of the molar value.

Q. Any idea what pIC50 came out for `Nc1nc(-c2c[nH]c3ccccc23)c(-c2ccccc2)s1` on Plasmodium berghei?
A. 5.15

---

- System: Plasmodium berghei
- assayText: Luciferase/luciferin-expressing antifolate-resistant parasites were used to infect a culture of HepG2 cells that were pre-incubated with compounds. Infected hepatocytes emit light due to the luciferase reaction. Assay results are presented as the percent inhibition of light emission compared to control. […]
- Type: functional
- settings: sporozoite, HEPG2TOX_HILL_SLOPE 0.344, HEPG2TOX_R_SQUARED 0.575, PBLUC_HILL_SLOPE 18.9, PBLUC_R_SQUARED 0.0549, read-out: LUCIFERASE INFECTION ASSAY - IC50
endpointName: pIC50
Answers are plain numbers, as −log10 of the molar value.

Q. Any idea what pIC50 came out for `COc1ccc(C(=O)N2CCN(c3ncnc4cc(Cl)ccc34)CC2)cc1` on Plasmodium berghei?
A. 5.00

---

- Test system: Plasmodium berghei
- assayText: Luciferase/luciferin-expressing antifolate-resistant parasites were used to infect a culture of HepG2 cells that were pre-incubated with compounds. Infected hepatocytes emit light due to the luciferase reaction. Assay results are presented as the percent inhibition of light emission compared to control. […]
- Format: functional
- settings: sporozoite, PBLUC_HILL_SLOPE 1.86, PBLUC_R_SQUARED 0.575, read-out: LUCIFERASE INFECTION ASSAY - IC50
endpointName: IC50 (nM)
Answers are plain numbers, in nM.

Q. What IC50 value was documented for this compound, `O=C(Nc1ccc(Cl)cc1)N1CCCN(Cc2ccc(Br)cc2F)CC1` ?
A. 2950

---

- Test system: Plasmodium berghei
- assayText: Luciferase/luciferin-expressing antifolate-resistant parasites were used to infect a culture of HepG2 cells that were pre-incubated with compounds. Infected hepatocytes emit light due to the luciferase reaction. Assay results are presented as the percent inhibition of light emission compared to control. […]
- Assay type: functional
- settings: sporozoite, read-out: LUCIFERASE INFECTION ASSAY - IC90
Exercise: state measured IC90 for each of the compounds provided.

Example results:
O=C1CCCN1CCCNc1cc(-c2ccccc2)c2ccccc2n1; 4.46 µM
CCOC(=O)c1sc(NC(=O)Nc2ccc([N+](=O)[O-])cc2)cc1C; 4.91 µM

Dear colleague, could you send me IC90 for each of the items below? Thanks.
1. Cc1c(N/N=C(/C(=O)Nc2ccccc2)C(=O)c2ccccc2)c(=O)n(-c2ccccc2)n1C
2. O=C(Nc1ccc(Cl)cc1C(F)(F)F)C(OC(=O)C(c1ccccc1)c1ccccc1)c1ccccc1 (stereo not given)
3. Cc1cc(=O)nc(N/N=C/c2ccccc2O)[nH]1
4. Cc1cc(C)nc(N/N=C/c2c(C)nn(-c3ccccc3)c2Sc2nc3ccccc3s2)n1
5. CN(CCCNC(=O)CSc1nnc(-c2c[nH]c3ccccc23)n1C1CC1)c1ccccc1

A.
["> 10 µM", "> 10 µM", "> 13.5 µM", "> 10 µM", "9.32 µM"]

---

- Test system: Plasmodium berghei
- assayText: Luciferase/luciferin-expressing antifolate-resistant parasites were used to infect a culture of HepG2 cells that were pre-incubated with compounds. Infected hepatocytes emit light due to the luciferase reaction. Assay results are presented as the percent inhibition of light emission compared to control. […]
- Assay type: functional
- settings: sporozoite, FFLUC_HILL_SLOPE 58.8, FFLUC_R_SQUARED 0.264, HEPG2TOX_HILL_SLOPE 13.5, HEPG2TOX_R_SQUARED 0.74, PBLUC_HILL_SLOPE 13.2, PBLUC_R_SQUARED 0.157, read-out: LUCIFERASE INFECTION ASSAY - IC50
endpointName: IC50 (µM)
Numbers only, in µM.

Q. What IC50 value was documented for this molecule, CC(=O)Nc1cccc(-c2ccnc3c2CC(C(=O)NCc2cccs2)O3)c1 (stereo unspecified) ?
A. 2.74

---

Exercise: state measured IC90 for each of the compounds provided.
- System: Plasmodium berghei
- assayText: Luciferase/luciferin-expressing antifolate-resistant parasites were used to infect a culture of HepG2 cells that were pre-incubated with compounds. Infected hepatocytes emit light due to the luciferase reaction. Assay results are presented as the percent inhibition of light emission compared to control. […]
- Format: functional
- settings: sporozoite, read-out: LUCIFERASE INFECTION ASSAY - IC90

Oc1cccc(Nc2nc(N3CCCCC3)c3ccccc3n2)c1; > 10 µM

Dear colleague, could you send me IC90 for each of the items below? Thanks.
1. CC(=O)N1CCc2cc(NC(=O)c3cc(C)n(C4CCCCC4)c3C)ccc21
2. NC(=O)N1CCCC(C(=O)N2CCCC(c3nc4ccccc4s3)C2)C1 (configuration not stated)
3. Cc1ccc(NC2=C(Cl)C(=O)c3ccccc3C2=O)cc1
4. Cc1nn(C)c2ncc(C(=O)Nc3ccc(F)c(Cl)c3)c(SC(C)C)c12
5. Cc1cccc(/C=C2\CC(C#N)(c3ccccc3)C/C(=C\c3cccc(C)c3)C2=O)c1 (configuration not stated)
6. CCOc1ncccc1C(=O)N(C)Cc1cn(-c2ccccc2)nc1-c1ccccc1

A.
1. 0.349 µM
2. > 10 µM
3. 7.81 µM
4. > 8.4 µM
5. > 10 µM
6. 5.34 µM

---

- System: Plasmodium berghei
- assayText: Luciferase/luciferin-expressing antifolate-resistant parasites were used to infect a culture of HepG2 cells that were pre-incubated with compounds. Infected hepatocytes emit light due to the luciferase reaction. Assay results are presented as the percent inhibition of light emission compared to control. […]
- Format: functional
- settings: sporozoite, PBLUC_HILL_SLOPE 12.3, PBLUC_R_SQUARED 0.609, read-out: LUCIFERASE INFECTION ASSAY - IC50
endpointName: pIC50
Give bare numbers, as −log10 of the molar value.

Q. What pIC50 value was documented for this compound, `Cc1cccc(NC(=O)CN2CCN(C(=O)c3csc(-c4ccc(C(C)C)cc4)n3)CC2)c1C` ?
A. 5.50

---

- Tested on: Plasmodium berghei
- assayText: Luciferase/luciferin-expressing antifolate-resistant parasites were used to infect a culture of HepG2 cells that were pre-incubated with compounds. Infected hepatocytes emit light due to the luciferase reaction. Assay results are presented as the percent inhibition of light emission compared to control. […]
- Assay type: functional
- settings: sporozoite, read-out: LUCIFERASE INFECTION ASSAY - IC50
pIC50: −log10 of the molar value.
Exercise: state measured pIC50 for each of the molecules provided.

Example results:
Cc1cc(C)n(CCCNC(=O)Cc2c(C)nc3ncnn3c2C)n1; < 5.00
Cc1ccc(Cn2nc(C)c(C(=O)OCC(=O)/C=C3\N(C)c4ccccc4C3(C)C)c2Cl)cc1; < 5.00
CCOC(=O)c1c[nH]c2c(F)cc(F)cc2c1=O; < 4.89
Cc1sc2ncnc(Sc3nnc(C(F)(F)F)n3C)c2c1C; < 5.00
Cc1ccc(S(=O)(=O)Nc2cccc(C(=O)NN(C)c3ccccc3)c2)cc1F; < 5.00
Cc1cccc(NC(=O)N2CCC3(CC2)OCc2cc(-c4ccc(OC(F)(F)F)cc4)ccc2O3)c1; < 5.18
O=C(Nc1ccc2c[nH]nc2c1)c1cccc(Oc2ccccc2)c1; < 5.00
Clc1ccc(Sc2ncnc3sccc23)cc1; < 4.93

Dear colleague, could you send me pIC50 for each of the items below? Thanks.
1. COc1cc(-c2cccc(Nc3cccc(OC(F)(F)C(F)F)c3)n2)cc(OC)c1OC
2. CCN(C(=O)CSc1nc2cc(C(=O)O)ccc2c(=O)n1Cc1ccccc1)c1ccccc1
3. COC(=O)c1sc2nccnc2c1N
4. Cn1c(-c2cncc(C#Cc3ccccc3)c2)n[nH]c1=S
5. S=C(Nc1ccc(C2=NCCO2)cc1)Nc1ccc(Cl)c(Cl)c1
6. CCC1c2ccsc2CCN1C(=O)C1CCN(S(=O)(=O)c2ccc(Cl)c([N+](=O)[O-])c2)CC1 (configuration not stated)
7. C=CCNC(=S)Nc1ccc(Oc2cc(C(F)(F)F)cc(C(F)(F)F)c2)cc1
8. COc1ccc(NC(=O)Nc2ccc3nc(-c4ccccc4)nn3c2)cc1OC

A.
1: < 5.14; 2: < 5.00; 3: < 4.80; 4: < 4.95; 5: < 5.05; 6: < 5.00; 7: 5.52; 8: < 5.00
